Data origin: paper PMC7316778

target: MAP2K6 (MKK6) (Homo sapiens)
Sequence (P52564 whole entry, species assumed): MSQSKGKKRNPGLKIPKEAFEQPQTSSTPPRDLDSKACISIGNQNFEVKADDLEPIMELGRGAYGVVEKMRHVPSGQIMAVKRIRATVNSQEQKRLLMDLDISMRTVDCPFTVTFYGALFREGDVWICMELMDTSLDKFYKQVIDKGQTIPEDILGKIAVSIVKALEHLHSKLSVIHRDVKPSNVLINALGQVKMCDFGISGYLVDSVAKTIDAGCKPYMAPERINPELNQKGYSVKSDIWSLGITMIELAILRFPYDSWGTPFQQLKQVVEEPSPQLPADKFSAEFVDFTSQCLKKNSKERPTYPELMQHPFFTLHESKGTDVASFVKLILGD
QUANTITY NAME: IC50

Incoming: What reported IC50 corresponds to C#CCOc1ccc(Nc2ncc(Cl)c(Nc3ccccc3NC(=O)C=C)n2)c(OC)c1 [Compound 6] on MAP2K6 (MKK6) (Homo sapiens)?
Outgoing: 316 nM

---

target: ABL1 (Homo sapiens, UniProt P00519); assay: PamChip microarray peptide phosphorylation; details: peptide substrate phosphorylated by ABL1
Sequence (P00519 whole entry): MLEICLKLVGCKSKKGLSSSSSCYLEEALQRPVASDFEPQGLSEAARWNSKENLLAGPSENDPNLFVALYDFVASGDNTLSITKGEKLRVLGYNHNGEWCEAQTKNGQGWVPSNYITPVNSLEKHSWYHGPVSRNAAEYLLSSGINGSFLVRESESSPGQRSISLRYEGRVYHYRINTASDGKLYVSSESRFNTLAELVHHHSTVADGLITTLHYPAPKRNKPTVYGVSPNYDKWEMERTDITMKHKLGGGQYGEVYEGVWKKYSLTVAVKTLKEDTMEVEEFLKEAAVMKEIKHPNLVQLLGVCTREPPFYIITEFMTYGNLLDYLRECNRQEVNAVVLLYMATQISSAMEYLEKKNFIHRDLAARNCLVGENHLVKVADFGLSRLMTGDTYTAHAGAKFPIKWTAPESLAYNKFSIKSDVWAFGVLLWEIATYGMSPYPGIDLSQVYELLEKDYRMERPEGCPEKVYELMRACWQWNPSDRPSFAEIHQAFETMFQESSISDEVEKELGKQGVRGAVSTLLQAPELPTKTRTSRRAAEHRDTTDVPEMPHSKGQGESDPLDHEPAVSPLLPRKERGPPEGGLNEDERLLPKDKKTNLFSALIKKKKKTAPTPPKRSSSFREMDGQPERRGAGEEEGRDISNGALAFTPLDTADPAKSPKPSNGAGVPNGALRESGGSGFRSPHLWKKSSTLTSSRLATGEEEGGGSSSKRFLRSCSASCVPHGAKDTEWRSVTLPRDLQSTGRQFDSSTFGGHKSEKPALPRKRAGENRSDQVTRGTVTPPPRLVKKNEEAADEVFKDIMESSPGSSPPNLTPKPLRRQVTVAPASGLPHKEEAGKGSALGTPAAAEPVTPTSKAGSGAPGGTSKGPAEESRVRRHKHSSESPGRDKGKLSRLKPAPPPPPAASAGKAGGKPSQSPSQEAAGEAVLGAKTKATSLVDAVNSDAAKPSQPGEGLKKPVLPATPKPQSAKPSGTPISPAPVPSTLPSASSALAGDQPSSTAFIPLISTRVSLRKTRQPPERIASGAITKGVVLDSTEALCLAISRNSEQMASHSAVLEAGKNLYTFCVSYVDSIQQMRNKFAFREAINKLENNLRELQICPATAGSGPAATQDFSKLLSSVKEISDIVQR
QUANTITY NAME: Relative phosphorylation (% of highest signal)

See these solved cases before continuing.
SUBSTANCE	EXPERIMENTAL VALUE
ZBT16_621_633 (LRTHNGASPYQCT; UniProt Q05516 621-633, looked up, fragment)	-0.119 % of highest signal
NPT2A_501_513 (AKALGKRTAKYRW; UniProt Q06495 501-513, looked up, fragment)	-0.2 % of highest signal

Incoming: Endpoint output: Relative phosphorylation (% of highest signal) of VGFR1_1049_1061 (KNPDYVRKGDTRL; UniProt P17948 1049-1061, looked up, fragment) . Value?
Outgoing: -0.36 % of highest signal

---

Form field: Residual activity (%) WT Mean (one value per entry).
target: UniProtKB P16591; assay: In vitro TR-FRET kinase assay; settings: log[inhibitor] (M) -9
Sequence (P16591 448-820): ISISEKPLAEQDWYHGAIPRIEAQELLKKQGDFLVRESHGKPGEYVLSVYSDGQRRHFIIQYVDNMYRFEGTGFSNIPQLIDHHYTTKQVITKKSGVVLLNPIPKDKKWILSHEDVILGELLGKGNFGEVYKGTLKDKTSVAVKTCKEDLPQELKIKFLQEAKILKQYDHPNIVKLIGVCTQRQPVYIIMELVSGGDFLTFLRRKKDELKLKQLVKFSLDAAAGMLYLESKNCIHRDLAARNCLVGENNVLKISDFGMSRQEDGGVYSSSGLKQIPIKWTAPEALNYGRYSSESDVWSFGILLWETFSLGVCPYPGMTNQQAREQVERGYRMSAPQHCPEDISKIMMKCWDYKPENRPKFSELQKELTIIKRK
Just the number plus its unit, please.

See these solved cases before continuing.
COMPOUND	Residual activity (%) WT Mean
CCC(=O)Nc1ccccc1Nc1nc(Nc2ccccc2OC)ncc1Cl [Supplementary Figure 8e]	106.725%
C=CC(=O)Nc1ccccc1Nc1nc(Nc2ccccc2OC)ncc1Cl [Supplementary Figure 8d]	106.616%
C#CCOc1ccc(Nc2ncc(Cl)c(Nc3ccccc3NC(=O)C=C)n2)c(OC)c1 [Supplementary Figure 8f]	107.069%

Incoming: Endpoint output: Residual activity (%) WT Mean of COc1ccccc1Nc1ncc(Cl)c(Nc2ccccc2S(=O)(=O)C(C)C)n1 [Supplementary Figure 8c] . Value?
Outgoing: 83.3824%

---

Target: FES^WT (Homo sapiens)
Construct: human FES cDNA encoding residues 448–822 or human FER cDNA encoding residues 448–820 was amplified by PCR; made in house; host or cells: E. coli BL21(DE3), co-expressing YopH phosphatase
Sequence (P07332 448-822): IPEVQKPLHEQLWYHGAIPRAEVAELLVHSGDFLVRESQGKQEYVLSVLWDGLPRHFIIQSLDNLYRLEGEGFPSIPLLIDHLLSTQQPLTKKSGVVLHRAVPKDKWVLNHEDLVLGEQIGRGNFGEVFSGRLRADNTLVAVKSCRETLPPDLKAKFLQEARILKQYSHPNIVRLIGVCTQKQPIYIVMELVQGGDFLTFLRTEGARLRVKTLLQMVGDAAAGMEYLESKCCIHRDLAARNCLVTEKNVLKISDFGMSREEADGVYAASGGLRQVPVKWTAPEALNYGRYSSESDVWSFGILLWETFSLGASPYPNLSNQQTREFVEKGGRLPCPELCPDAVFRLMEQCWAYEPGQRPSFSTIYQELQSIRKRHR
Assay: In vitro TR-FRET kinase assay
Assay type: biochemical
Details: TR-FRET assay, 5 µM ATP; n = 3; read-out: pIC50 FES^WT (converted)
Description: All measurements were performed in triplicate.
Form field: IC50 (one value per entry).

MOL	EXPERIMENTAL VALUE
COc1ccccc1Nc1ncc(Cl)c(Nc2ccccc2S(=O)(=O)C(C)C)n1	50.1 nM
C=CC(=O)Nc1ccccc1Nc1nc(Nc2ccccc2OC)ncc1Cl	2000 nM
C#CCOc1ccc(Nc2ncc(Cl)c(Nc3ccccc3NC(=O)C=C)n2)c(OC)c1	> 3000 nM

// switching to the query molecule
Incoming: Endpoint output: IC50 of "CCC(=O)Nc1ccccc1Nc1nc(Nc2ccccc2OC)ncc1Cl" . Value?
Outgoing: > 10000 nM

---

target: CSK (Homo sapiens, UniProt P41240); assay: PamChip microarray peptide phosphorylation; details: peptide substrate phosphorylated by CSK
Sequence (P41240 whole entry): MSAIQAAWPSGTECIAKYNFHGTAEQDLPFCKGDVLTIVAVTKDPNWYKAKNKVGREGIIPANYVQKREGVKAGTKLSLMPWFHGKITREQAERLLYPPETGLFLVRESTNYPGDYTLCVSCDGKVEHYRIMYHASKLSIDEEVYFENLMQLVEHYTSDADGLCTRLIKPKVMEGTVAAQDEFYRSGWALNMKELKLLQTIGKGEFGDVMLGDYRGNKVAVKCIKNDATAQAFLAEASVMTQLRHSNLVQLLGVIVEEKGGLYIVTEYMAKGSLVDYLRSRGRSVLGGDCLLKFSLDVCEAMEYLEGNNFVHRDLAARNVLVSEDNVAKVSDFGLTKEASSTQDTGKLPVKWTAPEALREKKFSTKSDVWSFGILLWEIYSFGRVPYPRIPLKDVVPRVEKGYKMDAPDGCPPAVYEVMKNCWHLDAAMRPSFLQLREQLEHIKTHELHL
Form field: Relative phosphorylation (% of highest signal) (one value per entry).

See these solved cases before continuing.
SUBSTANCE	EXPERIMENTAL VALUE
VINC_815_827 (KSFLDSGYRILGA; UniProt P18206 815-827, looked up, fragment)	-0.442 % of highest signal
VGFR2_989_1001 (EEAPEDLYKDFLT; UniProt P35968 989-1001, looked up, fragment)	30.5 % of highest signal
EFS_246_258_Y253F (GGTDEGIFDVPLL; UniProt O43281 246-258, looked up, fragment Y253F)	-0.6 % of highest signal
ZAP70_485_497 (ALGADDSYYTARS; UniProt P43403 485-497, looked up, fragment)	0.277 % of highest signal
PERI_458_470 (QRSELDKSSAHSY; UniProt P41219 458-470, looked up, fragment)	-0.632 % of highest signal
STA5A_687_699 (LAKAVDGYVKPQI; UniProt P42229 687-699, looked up, fragment)	-1.3 % of highest signal

// switching to the query substance
Incoming: Endpoint output: Relative phosphorylation (% of highest signal) of STAT6_634_646 (MGKDGRGYVPATI; UniProt P42226 634-646, looked up, fragment) . Value?
Outgoing: -1.1 % of highest signal

---

target: SYK (Homo sapiens, UniProt P43405); assay: PamChip microarray peptide phosphorylation; settings: peptide substrate phosphorylated by SYK
QUANTITY NAME: Relative phosphorylation (% of highest signal)

See these solved cases before continuing.
SUBSTANCE	MEASURED ON	EXPERIMENTAL VALUE
VGFR1_1320_1332_C1320K/C1321K (KKSPPPDYNSVVL; UniProt P17948 1320-1332, looked up, variant C1320K C1321K)	SYK (Homo sapiens, UniProt P43405)	4.3 % of highest signal
MBP_263_275 (GRASDYKSAHKGF; UniProt P02686 263-275, looked up, fragment)	SYK (Homo sapiens, UniProt P43405)	-0.355 % of highest signal
VGFR1_1049_1061 (KNPDYVRKGDTRL; UniProt P17948 1049-1061, looked up, fragment)	SYK (Homo sapiens, UniProt P43405)	-0.167 % of highest signal

Incoming: Endpoint output: Relative phosphorylation (% of highest signal) of VGFR1_1046_1058_Y1048F (DIFKNPDYVRKGD; UniProt P17948 1046-1058, looked up, variant Y1048F) . Value?
Outgoing: 1.1 % of highest signal

Incoming: Endpoint output: Relative phosphorylation (% of highest signal) of ZBT16_621_633 (LRTHNGASPYQCT; UniProt Q05516 621-633, looked up, fragment) . Value?
Outgoing: -1.0 % of highest signal

Incoming: Endpoint output: Relative phosphorylation (% of highest signal) of STAT4_686_698 (TERGDKGYVPSVF; UniProt Q14765 686-698, looked up, fragment) . Value?
Outgoing: -1.2 % of highest signal

Incoming: Endpoint output: Relative phosphorylation (% of highest signal) of VGFR3_1061_1073 (DIYKDPDYVRKGS; UniProt P35916 1061-1073, looked up, fragment) . Value?
Outgoing: 2.4 % of highest signal

Incoming: Endpoint output: Relative phosphorylation (% of highest signal) of ZAP70_485_497 (ALGADDSYYTARS; UniProt P43403 485-497, looked up, fragment) . Value?
Outgoing: 10.4 % of highest signal

Incoming: Endpoint output: Relative phosphorylation (% of highest signal) of STA5A_687_699 (LAKAVDGYVKPQI; UniProt P42229 687-699, looked up, fragment) . Value?
Outgoing: -1.9 % of highest signal

Incoming: Endpoint output: Relative phosphorylation (% of highest signal) of VGFR2_989_1001 (EEAPEDLYKDFLT; UniProt P35968 989-1001, looked up, fragment) . Value?
Outgoing: 15.3 % of highest signal

---

molecular target: ABL1 (Homo sapiens, UniProt P00519); experiment: PamChip microarray peptide phosphorylation; conditions: peptide substrate phosphorylated by ABL1
QUANTITY NAME: Relative phosphorylation (% of highest signal)

See these solved cases before continuing.
SUBSTANCE	MEASURED ON	EXPERIMENTAL VALUE
EFS_246_258_Y253F (GGTDEGIFDVPLL; UniProt O43281 246-258, looked up, fragment Y253F)	ABL1 (Homo sapiens, UniProt P00519)	-0.5 % of highest signal
VGFR1_1320_1332_C1320K/C1321K (KKSPPPDYNSVVL; UniProt P17948 1320-1332, looked up, variant C1320K C1321K)	ABL1 (Homo sapiens, UniProt P00519)	-0.0535 % of highest signal
ART_004_EAIYAAPFAKKKXC	ABL1 (Homo sapiens, UniProt P00519)	100.0 % of highest signal
ODBA_340_352_D340K (KDSSAYRSVDEVN; UniProt P12694 340-352, looked up, variant D340K)	ABL1 (Homo sapiens, UniProt P00519)	5.2 % of highest signal
STA5A_687_699 (LAKAVDGYVKPQI; UniProt P42229 687-699, looked up, fragment)	ABL1 (Homo sapiens, UniProt P00519)	-0.439 % of highest signal

Incoming: Endpoint output: Relative phosphorylation (% of highest signal) of ZAP70_485_497 (ALGADDSYYTARS; UniProt P43403 485-497, looked up, fragment) . Value?
Outgoing: -0.0741 % of highest signal

Incoming: Endpoint output: Relative phosphorylation (% of highest signal) of AMPE_5_17 (EREGSKRYCIQTK; UniProt Q07075 5-17, looked up, fragment) . Value?
Outgoing: -0.436 % of highest signal

Incoming: Endpoint output: Relative phosphorylation (% of highest signal) of VGFR2_1168_1180 (AQQDGKDYIVLPI; UniProt P35968 1168-1180, looked up, fragment) . Value?
Outgoing: 0.014 % of highest signal

Incoming: Endpoint output: Relative phosphorylation (% of highest signal) of VGFR1_1046_1058_Y1048F (DIFKNPDYVRKGD; UniProt P17948 1046-1058, looked up, variant Y1048F) . Value?
Outgoing: -0.449 % of highest signal

Incoming: Endpoint output: Relative phosphorylation (% of highest signal) of STAT1_694_706 (DGPKGTGYIKTEL; UniProt P42224 694-706, looked up, fragment) . Value?
Outgoing: -0.6 % of highest signal
